These measurements were taken from patent US11339171B2.

Can you tell me IC50 for the items I'm about to list?
System: human osteosarcoma cell line SJSA-1
Assay: Inhibition of proliferation of human osteosarcoma cell line SJSA-1 (DAPI staining, In Cell Analyzer)
Conditions: Homo sapiens, SJSA-1, 72 h, read-out: IC50 (nM), inhibitory activity on proliferation of human osteosarcoma cell line SJSA-1, SJSA-1, incubated 72 h
Give bare numbers, in nM.

COc1cc(N(C)C)ncc1-c1nc2c(n1C(C)C)[C@]1(C(=O)Nc3cc(Cl)ccc31)N(c1cccc(Cl)c1)C2=O [Example R-113]: 2170
COc1cc(N)c(C)cc1-c1nc2c(n1C(C)C)[C@@]1(C(=O)Nc3cc(Cl)ccc31)N(c1cc(Cl)ccc1C)C2=O [Example S-74]: 7.85
COc1cc(CN(C)C)ccc1-c1nc2c(n1C(C)C)[C@@]1(C(=O)Nc3cc(Cl)ccc31)N(c1cc(Cl)ccc1C)C2=O [Example S-47]: 14
COc1cc(C(F)(F)F)ccc1-c1nc2c(n1C(C)C)[C@@]1(C(=O)Nc3cc(Cl)ccc31)N(c1cccc(Cl)c1)C2=O [Example S-129]: 146
COc1ncc(-c2nc3c(n2C(C)C)[C@]2(C(=O)Nc4cc(Cl)ccc42)N(c2cc(Cl)ccc2OC)C3=O)c(OC)n1 [Example R-17]: 1310
COc1nc(N2CCCC2)ncc1-c1nc2c(n1C(C)C)[C@@]1(C(=O)Nc3cc(Cl)ccc31)N(c1cc(Cl)ccc1C)C2=O [Example S-114]: 10.1
COc1nc(C#N)ncc1-c1nc2c(n1C(C)C)C1(C(=O)Nc3cc(Cl)ccc31)N(c1cc(Cl)ccc1C)C2=O (stereo not shown) [Example 179]: 52.7
CCN(C)c1ncc(-c2nc3c(n2C(C)C)[C@@]2(C(=O)Nc4cc(Cl)ccc42)N(c2cc(Cl)ccc2C)C3=O)c(OC)n1 [Example S-119]: 20

Please go through the list and note IC50 for each compound.
1. COc1ccc(-c2nc3c(n2C(C)C)[C@@]2(C(=O)Nc4cc(Cl)ccc42)N(c2cccc(Cl)c2)C3=O)c(OC)c1 [Example S-36]
2. CCOc1ccc(-c2nc3c(n2C(C)C)[C@@]2(C(=O)Nc4cc(Cl)ccc42)N(c2cc(Cl)ccc2F)C3=O)c(OC)c1 [Example S-94]
3. COc1cc(OCCF)ncc1-c1nc2c(n1C(C)C)[C@@]1(C(=O)Nc3cc(Cl)ccc31)N(c1cc(Cl)ccc1C)C2=O [Example S-163]
4. COc1cc(N)ccc1-c1nc2c(n1C(C)C)[C@@]1(C(=O)Nc3cc(Cl)ccc31)N(c1cc(F)cc(Cl)c1)C2=O [Example S-67]
5. COc1ncc(-c2nc3c(n2C(C)C)[C@@]2(C(=O)Nc4cc(Cl)ccc42)N(c2ccc(OC(F)(F)F)c(Cl)c2)C3=O)c(OC)n1 [Example S-161]

Reply:
[83.8, 309, 126, 20.8, 557]

Please go through the list and note IC50 for each compound.
1. CCOc1ncc(-c2nc3c(n2C(C)C)[C@@]2(C(=O)Nc4cc(Cl)ccc42)N(c2cccc(Cl)c2)C3=O)c(OC)n1 [Example S-123]
2. CNc1ccc(-c2nc3c(n2C(C)C)[C@@]2(C(=O)Nc4cc(Cl)ccc42)N(c2cc(Cl)ccc2C)C3=O)c(OC)c1 [Example S-25]
3. COc1ncc(-c2nc3c(n2C(C)C)[C@@]2(C(=O)Nc4cc(Cl)ccc42)N(c2ccc(F)c(Cl)c2)C3=O)c(OC)n1 [Example S-3]
4. COc1cc(OC(F)F)ncc1-c1nc2c(n1C(C)C)[C@@]1(C(=O)Nc3cc(Cl)ccc31)N(c1cc(Cl)ccc1C)C2=O [Example S-150]
5. COc1cc(C(F)(F)F)ccc1-c1nc2c(n1C(C)C)[C@@]1(C(=O)Nc3cc(Cl)ccc31)N(c1cc(Cl)cnc1C)C2=O [Example S-144]
6. COc1ccc(C(=O)N(C)C)cc1-c1nc2c(n1C(C)C)[C@]1(C(=O)Nc3cc(Cl)ccc31)N(c1cc(Cl)ccc1C)C2=O [Example R-22]
7. CCn1c(-c2cnc(OC)nc2OC)nc2c1[C@]1(C(=O)Nc3cc(Cl)ccc31)N(c1cc(Cl)ccc1C)C2=O [Example R-26]

Reply:
1. 321
2. 8.83
3. 174
4. 80.5
5. 101
6. 6950
7. 3650

Please go through the list and note IC50 for each compound.
1. CCOc1cc(OC)c(-c2nc3c(n2C(C)C)[C@@]2(C(=O)Nc4cc(Cl)ccc42)N(c2cc(Cl)cnc2C)C3=O)cn1 [Example S-96]
2. CCOc1ncc(-c2nc3c(n2C(C)C)[C@]2(C(=O)Nc4cc(Cl)ccc42)N(c2cc(Cl)ccc2C)C3=O)c(OC)n1 [Example R-127]
3. COc1cc(C(F)(F)F)ncc1-c1nc2c(n1C(C)C)[C@@]1(C(=O)Nc3cc(Cl)ccc31)N(c1cc(Cl)cnc1C)C2=O [Example S-152]
4. COc1nc(OCC(F)F)ncc1-c1nc2c(n1C(C)C)[C@@]1(C(=O)Nc3cc(Cl)ccc31)N(c1cc(Cl)ccc1C)C2=O [Example S-147]
5. COc1cc(N(C)C)ccc1-c1nc2c(n1C(C)C)[C@]1(C(=O)Nc3cc(Cl)ccc31)N(c1cccc(Cl)c1)C2=O [Example R-104]

Reply:
25.3
1570
79.8
271
6890

====

Test: Pharmacokinetics in ICR mice after intravenous and intragastric administration
Assay type: in vivo
Settings: male, ICR, mouse, plasma, po, 5 mg/kg, ICR mice, PO 5 mg/kg, mean of 3 animals
Can you tell me AUC(0-inf) for the items I'm about to list?
Write down the value, and be sure its unit follows.

COc1nc(C2CC2)ncc1-c1nc2c(n1C(C)C)[C@@]1(C(=O)Nc3cc(Cl)ccc31)N(c1cc(Cl)cnc1C)C2=O: 5.61 µg·h/mL
CCOc1cc(OC)c(-c2nc3c(n2C(C)C)[C@@]2(C(=O)Nc4cc(Cl)ccc42)N(c2cc(Cl)ccc2C)C3=O)cn1: 34.4 µg·h/mL

Ask: Looking for the measured AUC(0-inf) of CCOc1cc(OC)c(-c2nc3c(n2C(C)C)[C@@]2(C(=O)Nc4cc(Cl)ccc42)N(c2cc(Cl)ccc2F)C3=O)cn1 , can you help?
Reply: 26.8 µg·h/mL

====

Assay: Pharmacokinetics in ICR mice after intravenous and intragastric administration
Type: in vivo
Settings: male, ICR, mouse, plasma, po, 5 mg/kg, PO 5 mg/kg, ICR mice, Mean; read-out: t1/2 (converted)
Can you tell me half-life for the items I'm about to list?
Answers are plain numbers, in h.

Please review the entries below; each comes with its answer.
COc1cc(OC)c(-c2nc3c(n2C(C)C)[C@@]2(C(=O)Nc4cc(Cl)ccc42)N(c2cc(Cl)ccc2C)C3=O)cn1: 1.69
COc1cc(N(C)C)ccc1-c1nc2c(n1C(C)C)[C@@]1(C(=O)Nc3cc(Cl)ccc31)N(c1cc(Cl)ccc1C)C2=O: 1.22
COc1ncc(-c2nc3c(n2C(C)C)[C@@]2(C(=O)Nc4cc(Cl)ccc42)N(c2cc(Cl)ccc2C)C3=O)c(OC)n1: 1.59
COc1ncc(-c2nc3c(n2C(C)C)[C@H](c2ccc(Cl)cc2)N(c2cc(Cl)cn(C)c2=O)C3=O)c(OC)n1 [HDM201, reference compound]: 1.11
COc1ccc(-c2nc3c(n2C(C)C)[C@@]2(C(=O)Nc4cc(Cl)ccc42)N(c2cc(Cl)ccc2C)C3=O)c(OC)c1: 1.41

Ask: Looking for the measured half-life of COc1ncc(-c2nc3c(n2C(C)C)[C@@]2(C(=O)Nc4cc(Cl)ccc42)N(c2cccc(Cl)c2)C3=O)c(OC)n1 , can you help?
Reply: 1.64

====

System: human osteosarcoma cell line SJSA-1
Assay: Inhibition of proliferation of human osteosarcoma cell line SJSA-1 (DAPI staining, In Cell Analyzer)
Details: Homo sapiens, SJSA-1, 72 h, read-out: IC50 (nM), inhibitory activity on proliferation of human osteosarcoma cell line SJSA-1, SJSA-1, incubated 72 h
Can you tell me IC50 for the items I'm about to list?
Answers are plain numbers, in nM.

COc1ncc(-c2nc3c(n2C2CC2)[C@@]2(C(=O)Nc4cc(Cl)ccc42)N(c2cc(Cl)ccc2C)C3=O)c(OC)n1 [Example S-28]: 1290
COc1cc(OC)c(-c2nc3c(n2C(C)C)[C@@]2(C(=O)Nc4cc(Cl)ccc42)N(c2cc(Cl)ccc2F)C3=O)cn1 [Example S-133]: 99.8
COc1nc(C2CC2)ncc1-c1nc2c(n1C(C)C)[C@]1(C(=O)Nc3cc(Cl)ccc31)N(c1cc(Cl)cnc1C)C2=O [Example R-159]: 5330

Please go through the list and note IC50 for each compound.
1. COc1nc(C2CC2)ncc1-c1nc2c(n1C(C)C)[C@@]1(C(=O)Nc3cc(Cl)ccc31)N(c1cc(Cl)ccc1C)C2=O [Example S-121]
2. COc1nc(C2CC2)ncc1-c1nc2c(n1C(C)C)[C@@]1(C(=O)Nc3cc(Cl)ccc31)N(c1cccc(Cl)c1)C2=O [Example S-122]
3. COc1cc(C(C)C)ncc1-c1nc2c(n1C(C)C)[C@@]1(C(=O)Nc3cc(Cl)ccc31)N(c1cc(Cl)ccc1C)C2=O [Example S-164]

Reply:
67
117
16.8

Please go through the list and note IC50 for each compound.
1. COc1cc(OC)c(-c2nc3c(n2C(C)C)[C@]2(C(=O)Nc4cc(Cl)ccc42)N(c2cc(Cl)ccc2C)C3=O)cc1C [Example R-83]
2. COc1ncc(-c2nc3c(n2C(C)C)[C@@]2(C(=O)Nc4cc(Cl)ccc42)N(c2ccc(C#N)c(Cl)c2)C3=O)c(OC)n1 [Example S-158]
3. Cc1ccc(Cl)cc1N1C(=O)c2nc(-c3ccccc3OC(F)F)n(C(C)C)c2[C@@]12C(=O)Nc1cc(Cl)ccc12 [Example S-30]
4. COc1ccc(-c2nc3c(n2C(C)C)[C@]2(C(=O)Nc4cc(Cl)ccc42)N(c2cc(Cl)ccc2C)C3=O)c(OC)c1 [Example R-9]

Reply:
1: 589; 2: 550; 3: 58.1; 4: 2820

Please go through the list and note IC50 for each compound.
1. COc1cc(C)ncc1-c1nc2c(n1C(C)C)[C@@]1(C(=O)Nc3cc(Cl)ccc31)N(c1cc(Cl)ccc1C)C2=O [Example S-154]
2. CCOc1cc(OC)c(-c2nc3c(n2C(C)C)[C@@]2(C(=O)Nc4cc(Cl)ccc42)N(c2cc(F)cc(Cl)c2)C3=O)cn1 [Example S-139]
3. COc1c(F)cccc1-c1nc2c(n1C(C)C)[C@@]1(C(=O)Nc3cc(Cl)ccc31)N(c1cc(Cl)ccc1C)C2=O [Example S-76]

Reply:
[22, 50.7, 309]
